# tested target: OCT3 (Solute carrier family 22 member 3) (Rattus norvegicus, UniProt O88446)
# test name: TP_TRANSPORTER: inhibition of Guanidine uptake (Guanidine: 35 uM, MPP+: 5000 uM) in OCT3-expressing HeLa cells
# Assay type: functional, cell-based
# Design: scale not given: the % may be the effect or the level left
# applied conditions: human, probe guanidine (35 uM), read-out: Activity
measurement name: activity at 5000 µM (%)
# number only, unit % dropped from output

Task: Report measured activity at 5000 µM; entry is `C[n+]1ccc(-c2ccccc2)cc1`
Output: 22

---

# tested target: OCT3 (Solute carrier family 22 member 3) (Rattus norvegicus)
# test name: TP_TRANSPORTER: inhibition of Guanidine uptake (Guanidine: 35 uM, NMN: 5000 uM) in OCT3-expressing HeLa cells
# Format: functional, cell-based
# Parameters: scale not given: the % may be the effect or the level left
# applied conditions: human, probe guanidine (35 uM), read-out: Activity
measurement name: activity at 5000 µM (%)
Kindly answer with a numeric value in %, unit omitted.

Task: Supply measured activity at 5000 µM of CNC(=O)c1cccnc1 [NICOTINYL METHYLAMIDE] in your reply.
Output: 33

---

# tested target: OCT3 (Solute carrier family 22 member 3) (Rattus norvegicus, UniProt O88446)
# Sequence (O88446 whole entry): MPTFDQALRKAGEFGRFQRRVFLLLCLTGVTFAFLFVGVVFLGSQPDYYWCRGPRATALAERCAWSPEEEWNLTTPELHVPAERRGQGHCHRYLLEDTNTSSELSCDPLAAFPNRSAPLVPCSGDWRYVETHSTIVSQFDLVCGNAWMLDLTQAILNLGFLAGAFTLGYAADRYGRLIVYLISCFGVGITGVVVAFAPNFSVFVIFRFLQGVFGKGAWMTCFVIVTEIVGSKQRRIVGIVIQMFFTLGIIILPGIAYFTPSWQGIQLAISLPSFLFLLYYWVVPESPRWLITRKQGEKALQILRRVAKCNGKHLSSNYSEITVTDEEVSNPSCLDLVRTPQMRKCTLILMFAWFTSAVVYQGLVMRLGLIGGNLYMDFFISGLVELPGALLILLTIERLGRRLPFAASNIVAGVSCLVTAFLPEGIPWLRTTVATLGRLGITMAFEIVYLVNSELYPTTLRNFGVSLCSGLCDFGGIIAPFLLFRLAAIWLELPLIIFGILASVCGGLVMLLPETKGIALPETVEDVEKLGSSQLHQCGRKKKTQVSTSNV
# test name: TP_TRANSPORTER: inhibition of Guanidine uptake (Guanidine: 35 uM, Desipramine: 5000 uM) in OCT3-expressing HeLa cells
# Format: functional, cell-based
# Set-up: scale not given: the % may be the effect or the level left
# applied conditions: human, probe guanidine (35 uM), read-out: Activity
measurement name: activity at 5000 µM (%)
Field: numeric (%). Do not append units.

Task: Report activity at 5000 µM, nothing else, for this compound: `CNCCCN1c2ccccc2CCc2ccccc21`
Output: 1

---

# tested target: UniProtKB O88446
# test name: in vitro
# applied conditions: human, OCT3-expressing HeLa cells, probe guanidine (35 uM)
measurement name: activity at 5000 µM (%)
I only need the number, in %, no unit after it.

Task: Look up UniProtKB O88446 data: activity at 5000 µM of `CN1CCC[C@H]1c1cccnc1` , then report it.
Output: 52

---

# tested target: OCT3 (Solute carrier family 22 member 3) (Rattus norvegicus, UniProt O88446)
# Sequence (O88446 whole entry): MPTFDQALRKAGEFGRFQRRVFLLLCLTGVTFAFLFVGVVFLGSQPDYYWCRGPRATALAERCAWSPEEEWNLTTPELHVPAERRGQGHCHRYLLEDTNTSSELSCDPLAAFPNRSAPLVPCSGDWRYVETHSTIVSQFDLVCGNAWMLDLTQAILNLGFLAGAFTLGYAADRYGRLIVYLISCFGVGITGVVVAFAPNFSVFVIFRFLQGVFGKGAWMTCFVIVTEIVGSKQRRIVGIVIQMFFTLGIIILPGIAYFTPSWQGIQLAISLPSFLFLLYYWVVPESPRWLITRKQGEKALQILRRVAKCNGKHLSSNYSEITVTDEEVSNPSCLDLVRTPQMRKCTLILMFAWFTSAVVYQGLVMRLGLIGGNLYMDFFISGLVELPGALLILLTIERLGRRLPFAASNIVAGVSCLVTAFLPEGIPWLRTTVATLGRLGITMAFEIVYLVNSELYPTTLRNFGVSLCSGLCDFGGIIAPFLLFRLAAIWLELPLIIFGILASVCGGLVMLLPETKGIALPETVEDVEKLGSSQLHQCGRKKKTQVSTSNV
# test name: TP_TRANSPORTER: inhibition of Guanidine uptake (Guanidine: 35 uM, Serotonin: 5000 uM) in OCT3-expressing HeLa cells
# Format: functional, cell-based
# Set-up: scale not given: the % may be the effect or the level left
# applied conditions: human, probe guanidine (35 uM), read-out: Activity
measurement name: activity at 5000 µM (%)
Give just the numeric value; % need not be written.

Task: Given `NCCc1c[nH]c2ccc(O)cc12` , report its activity at 5000 µM on OCT3 (Solute carrier family 22 member 3) (Rattus norvegicus, UniProt O88446).
Output: 30
